# Test system: PPARg homodimer (NR concentration 180 nM)
# experimentDescription: PBM binding z-score (relative to random genomic background probes); higher = stronger binding; sequences stand for … in GC…GCGATTGACAGCGTAGAATGAAGG
readoutType: PBM binding z-score

TATCCTAGGTCAGATCGGGCCAGTATACGCTATA = 1.11
CGTCTAAGGTCAAGGTCAGTGAAAGAGACTCGAA = 4.29
GATACAGGGTCAGCTAGAGGTCAGAGTATGGAAA = 6.51

For each listed entry, give its PBM binding z-score.
1. CCTTACGGGTCAAGGTTATCGCACGGGTGGTACG
2. CCTTACGGGTCCCTGACAGGTTATAGCATTTGGA
3. TCTAGTTGGTCAAAGGTCTCACACTCGAAATGCG
4. CCGAGTAGGTTACGACGGGGCATTCAGTGCGAAT
5. CTATGTAGGTTAAGGGGGTCAATCAGTTTGAAAG
6. CCTACTGGGGCACGAAAGGTCATTGATTCAGTGA

Reply:
1: 2.19; 2: 0.149; 3: 2.48; 4: 0.811; 5: 2.63; 6: 3.09

List reported PBM binding z-score for each of these sequences:
1. CGAACTAGGTTAAAGGACAGTGAAAGGCGACGTA
2. CTCGAAAGGTCAGTTGAGGTGAGTATACGGATAA
3. AGTCAAAGTTCAGCACGAGGTAACGTAAAGCACG
4. AGTCAAAGTTCACTAGGCAACGTAAGATTCAGCT
5. TAGCCTAGGTCCTTCAGGGGCCAGTATAGAAAGC
6. TCGAGTAGGTTGCGGGGGCATTCAGGGATGAAGA

Reply:
1.11
5.81
1.92
1.75
-0.932
1.44

Give PBM binding z-score for all sequences that follow.
1. AGTCAAAGTTCACGACGAGGTAACGTAAAGCACG
2. GCTGCTAGGTCAACTGATGGTGAGCTAAAGCTCG
3. CGTCCAAGGTCAAAGGTCAGGGAAGAGATGACGG
4. GGAACGGGGGCATTCGAGTTGATAGCATGGCGAT
5. TATACTGGGTCAAAGGCCAGAGTACGAATGTCGA
6. CCTACTGGGCCATTGAGAGGTCATTGATCATATG

Reply:
1: 4; 2: 1.16; 3: 3.19; 4: 1.37; 5: 5.01; 6: 2.14

---

# Tested on: PPARg:RXRa (NR concentration 180 nM, RXRa partner concentration 90 nM)
# experimentDescription: PBM binding z-score (relative to random genomic background probes); higher = stronger binding; sequences stand for … in GC…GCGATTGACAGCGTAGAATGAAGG
Can you tell me PBM binding z-score for the items I'm about to list?
Numbers only.

TCGAGTAGGTTACTGGGGCATTCAGGGATGAAGA = 4.99

Hey, quick one: what's PBM binding z-score for each of these?
1. CGAACTAGGTCAACGGACAGTGAAAGGCGACGTA
2. TTACCAAGGTGAAAGGTCGTTGAAGCACGCCTTG

Reply:
8.09
9.24

---

# System: VDR homodimer (NR concentration 270 nM)
# experimentDescription: PBM binding z-score (relative to random genomic background probes); higher = stronger binding; sequences stand for … in GC…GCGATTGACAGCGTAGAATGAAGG
Tick true (1) if PBM binding z-score is 1 or greater. Tick false (0) if PBM binding z-score is less than 1.

GCTAGTGGGTCAGTAAAAGGTCACACACCGGTCG = true (1)
TAGCCTAGGTCATTGGGCCAGTATAGTACGCATC = false (0)
CGTCCAAGGTCAACGCTAGGTCAGTGAAAGCATT = true (1)
CGCACTAGGTCAAAGGACAGTGAAAGGCGACGTA = false (0)
TAGCCTAGGACATGCGGGCCAGTATAGTGTCGGC = false (0)

Task item: Is PBM binding z-score at least 1? Consider TCTGCTAGGTCAGTTGGGCAGCTAACGAGCTGCC
Reply: false (0)

Task item: Decide: is the reported value of PBM binding z-score for GCTTACGGGTCAAAGGTTATAGTATGAATAGAAT equal to or greater than 1?
Reply: true (1)

Task item: Is it the case that CAAACTAGGTCACGAAAGGTCAACGTCGAATGAC has PBM binding z-score reaching or exceeding 1?
Reply: true (1)

# credit: the supplement of paper PMC6555819
